inhibition values by entry
# tgt: Platelet-activating factor acetylhydrolase (Homo sapiens) (UniProt Q13093)
# Sequence (Q13093 whole entry, looked up): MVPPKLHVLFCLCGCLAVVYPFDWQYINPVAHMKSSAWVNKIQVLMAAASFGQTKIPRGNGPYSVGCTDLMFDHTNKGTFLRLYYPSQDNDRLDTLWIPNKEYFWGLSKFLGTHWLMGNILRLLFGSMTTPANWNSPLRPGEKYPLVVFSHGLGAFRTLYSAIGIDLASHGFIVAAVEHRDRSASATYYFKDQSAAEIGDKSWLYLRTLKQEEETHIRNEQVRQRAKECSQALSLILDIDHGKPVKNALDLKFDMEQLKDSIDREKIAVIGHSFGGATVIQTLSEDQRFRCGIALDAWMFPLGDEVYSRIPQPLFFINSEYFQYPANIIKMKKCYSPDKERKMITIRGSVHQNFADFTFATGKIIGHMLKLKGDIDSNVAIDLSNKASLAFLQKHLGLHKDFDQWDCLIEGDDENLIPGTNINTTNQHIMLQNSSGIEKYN
# procedureText: pPAFAH enzyme inhibitors, primary screen, biochemical, fluorescence polarization, human (AID 463082);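 also: inhibitors block binding of the rhodamine activity-based probe so polarization drops; 0% = enzyme with DMSO and 100% = wells lacking pPAFAH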
# details: recombinant pPAFAH, FP-rhodamine probe fluorescence polarization; at 3.39 µM; hits give high values
Screen size: about 330,000 compounds; about 4,900 (1.5%) were called active. The sample as a whole holds a higher share of actives than the screen did.

{"compound": "CC(C)C(C)(C#N)NC(=O)CSc1nc2scc(-c3ccccc3)c2c(=O)[nH]1 (stereo not given)", "units": "%", "inhibition": 11.1}
{"compound": "CC(C)(C)OC(=O)C[C@H]1C/C=C\\C[C@@H](CC(=O)N[C@H](CO)Cc2ccccc2)C(=O)NC[C@@H](c2ccccc2)OC1=O", "units": "%", "inhibition": 1.87}
{"compound": "CC1CCC(NC(=O)C2c3ccccc3C(=O)N2Cc2ccc3c(c2)OCO3)CC1 (stereo not given)", "units": "%", "inhibition": -0.02}
{"compound": "CCN1CCN(C(=O)CCN2C(=O)c3ccccc3C2=O)CC1", "units": "%", "inhibition": -1.23}
{"compound": "CC(=O)c1ccc(S(=O)(=O)NCCC(=O)N2CCN(c3ccccn3)CC2)cc1", "units": "%", "inhibition": -1.99}
{"compound": "CN(CC(=O)N1CCN(c2ccccc2)CC1)S(=O)(=O)c1cccs1", "units": "%", "inhibition": -1.58}
{"compound": "CC(=O)Oc1c(C(=O)c2nnc(C)o2)c(=O)n(Cc2ccccc2)c2ccccc12", "units": "%", "inhibition": 4.19}
{"compound": "CN=C1S/C(=C\\c2c(OC)cc(OC)cc2OC)C(=O)N1C", "units": "%", "inhibition": -0.42}
{"compound": "CN1C(=O)/C(=C/c2ccco2)SC1=Nc1cccc(C(=O)O)c1", "units": "%", "inhibition": 25.1}
{"compound": "COc1cc(OC)cc(C(=O)NNC(=O)Cc2cccs2)c1", "units": "%", "inhibition": 19.8}
